Measured Relative % to non-lipidated peptide, listed per entry.
target: human glucagon receptor (GCGR), expressed on CHO-K1 cells (human, UniProt P47871 26-477); test: cell-based or functional assay
Sequence (P47871 26-477): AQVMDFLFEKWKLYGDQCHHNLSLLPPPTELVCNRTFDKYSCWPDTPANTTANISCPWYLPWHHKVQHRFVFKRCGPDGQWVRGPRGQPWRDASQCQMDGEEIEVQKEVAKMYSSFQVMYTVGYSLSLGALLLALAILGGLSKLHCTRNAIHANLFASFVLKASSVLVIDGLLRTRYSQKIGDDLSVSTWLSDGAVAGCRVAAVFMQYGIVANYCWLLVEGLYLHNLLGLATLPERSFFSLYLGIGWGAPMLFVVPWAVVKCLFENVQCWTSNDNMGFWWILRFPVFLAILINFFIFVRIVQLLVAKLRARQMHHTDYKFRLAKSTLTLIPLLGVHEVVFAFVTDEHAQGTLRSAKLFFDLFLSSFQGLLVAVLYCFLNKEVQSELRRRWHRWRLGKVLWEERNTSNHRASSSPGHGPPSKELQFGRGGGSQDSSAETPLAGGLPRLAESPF
Numbered stars: 1 amine (or outer) side, 2 acyl side, 3 side chain; on linkers, the order of the positions; unused ones are H or OH. Square brackets hold non-standard residues; d marks the D form. Primed or numbered codes have the meaning given here. Side chains are listed from the residue outwards. Ends that are not written are not given here. * marks the point of attachment. C18 = C18 fatty acid (C16-C22 fatty acids conjugated via γGlu/8-amino-3,6-dioxaoctanoic acid spacers); C18″ = C18 fatty acid moiety (of 2OEG-γGlu-C18, K*); γGlu = O=C(O)[C@H](CCC(=O)[*:2])N[*:1]; AEEA = NCCOCCOCC(=O)O; Aib = CC(C)(N)C(=O)O; MAL = maleimide
METRIC_NAME: Relative % to non-lipidated peptide (%)

> print(dat)
                                      binder  reported.value
 1  Y[Aib]QGTFTSDK([AEEA-AEEA-γGlu-C18″])SKYLDYMMARDFVQWLIEGGPSSGAPPPS-NH2 [Peptide No. 5-1E]               1
 2  H[Aib]QGTFTSDYSK([AEEA-AEEA-γGlu-C18″])YLDYMMARDFVQWLIEGGPSSGAPPPS-NH2 [Peptide No. 5D]              10
 3  H[Aib]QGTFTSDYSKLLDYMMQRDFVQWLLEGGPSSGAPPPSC([MAL-AEEA-AEEA-γGlu-C18])-NH2 [Peptide No. 5-5A]               1
 4  Y[Aib]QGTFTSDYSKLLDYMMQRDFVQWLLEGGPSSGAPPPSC-NH2 [Peptide No. 5-3]             100
 5  Y[Aib]QGTFTSDYSKYLDYMMQRDFVQWLIEGGPSSGAPPPSC-NH2 (not fully specified (residue 40)) [Peptide No. 5-2A]               1
 6  Y[Aib]QGTFTSDYSK([AEEA-AEEA-γGlu-C18″])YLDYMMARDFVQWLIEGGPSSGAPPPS-NH2 [Peptide No. 5-1D]               1
 7  H[Aib]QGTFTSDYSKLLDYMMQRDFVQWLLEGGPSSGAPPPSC-NH2 [Peptide No. 5-5]             100
 8  Y[Aib]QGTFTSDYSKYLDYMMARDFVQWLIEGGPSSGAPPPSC-NH2 (not fully specified (residue 40)) [Peptide No. 5-1A]               0
 9  Y[Aib]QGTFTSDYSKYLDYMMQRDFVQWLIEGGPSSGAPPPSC-NH2 [Peptide No. 5-2]             100
10  H[Aib]QGTFTSDYSK([AEEA-AEEA-γGlu-C18″])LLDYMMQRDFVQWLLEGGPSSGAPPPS-NH2 [Peptide No. 5-5D]               1
11  Y[Aib]QGTFTSDYSKYLDYK([AEEA-AEEA-γGlu-C18″])MARDFVQWLIEGGPSSGAPPPS-NH2 [Peptide No. 5-1F]              76
